Where do the numbers come from? From paper PMC3816703.

# assay.overview: MTT cell viability assay on N2a cells (24 h treatment)
# Format: cell-based, Mouse
# protocol.conditions: mouse; N2a cells, 50 µM, 24 h, as compared to untreated cells; read-out: mean percentage of viable cells
This section presents molecules with their documented viability at 24 h, 50 µM values.

>  <molecule>
CC12CC3CC(C)(C1)CC(N)(C3)C2 [memantine, 1-amino-3,5-dimethyladamantine, reference compound]

>  <viability at 24 h, 50 µM>
91.6%

$$$$

Moving on to another molecule below.
## Input Entry under review: c1ccc(C2(NCCN3CCCCC3)CC3CCC2C3)cc1 (centres unmarked) . Reported viability at 24 h, 50 µM?
## Output 77%

---

This section presents compounds with their documented IC50 values.
# Test system: N2a cells
# assay.overview: MTT cell viability assay on N2a cells (24 h treatment)
# Format: cell-based, Mouse
# protocol.conditions: Mus musculus; N2a cells, 24 h treatment, mean n = 3, concentration yielding 50% inhibition of mitochondrial enzyme activity; read-out: MTT test (IC50)

>  <compound>
Fc1ccc(C2(NCCN3CCCC3)CC3CCC2C3)cc1 (stereo not drawn) [5f]

>  <IC50>
71 µM

$$$$
>  <compound>
CC12CC3CC(C)(C1)CC(N)(C3)C2 [memantine, 1-amino-3,5-dimethyladamantine, reference compound]

>  <IC50>
219 µM

$$$$

Moving on to another compound below.
## Input Entry under review: Fc1ccc(C2(NCCN3CCOCC3)CC3CCC2C3)cc1 (stereo not drawn) [5d] . Reported IC50?
## Output > 1000 µM

---

This section presents molecules with their documented viability at 24 h, 10 µM values.
# assay.overview: MTT cell viability assay on N2a cells (24 h treatment)
# Format: cell-based, Mouse
# protocol.conditions: mouse; N2a cells, 10 µM, 24 h, as compared to untreated cells; read-out: mean percentage of viable cells
Provide only the numeric value, understood in %.

>  <molecule>
c1ccc(C2(NCCN3CCCCC3)CC3CCC2C3)cc1 (centres unmarked) [5a]

>  <viability at 24 h, 10 µM / %>
93

$$$$

Moving on to another molecule below.
## Input Entry under review: CC12CC3CC(C)(C1)CC(N)(C3)C2 [memantine, 1-amino-3,5-dimethyladamantine, reference compound] . Reported viability at 24 h, 10 µM?
## Output 94.6
